- Tested on: SK-HEP1
- ASSAY_EXPLANATION: Cytotoxicity against human SKHEP1 cells assessed as decrease in cell viability after 72 hrs by SRB assay
- Format: functional, cell-based
- STUDY_CONDITIONS: SK-HEP1, 72 h
PARAMETER_MEASURED: IC50 (µM)

In [3]: df
Out[3]:
                                   molecule  limit_qualifier  numeric_readout
0  OCC1=C(F)[C@@H](n2cnc3c(O)ncnc32)[C@H](O)[C@@H]1O                >              100
1  CNc1ncnc2c1ncn2[C@@H]1C(F)=C(CO)[C@@H](O)[C@H]1O                =             2.76
2  O=c1nc(O)c(I)cn1[C@@H]1C(F)=C(CO)[C@@H](O)[C@H]1O                >              100
3  O=c1nc(O)c(Cl)cn1[C@@H]1C(F)=C(CO)[C@@H](O)[C@H]1O                >              100
4  Nc1ncnc2c1ncn2[C@@H]1C=C(CO)[C@@H](O)[C@H]1O [NEOPLANOCIN A]                =             2.36
5  O=c1nc(O)c(Br)cn1[C@@H]1C(F)=C(CO)[C@@H](O)[C@H]1O                =               75
6  Nc1nc(=O)n([C@@H]2C(F)=C(CO)[C@@H](O)[C@H]2O)cc1Br                >              100
7  Nc1ccn([C@@H]2O[C@H](CO)[C@@H](O)[C@@H]2O)c(=O)n1 [CYTARABINE]                =              1.8

---

- Tested on: HCT-116
- ASSAY_EXPLANATION: Cytotoxicity against human HCT116 cells assessed as decrease in cell viability after 72 hrs by SRB assay
- Format: functional, cell-based
- STUDY_CONDITIONS: HCT-116, 72 h
Criterion: IC50 strictly less than 20 µM. Met: MET. Not met: NOT MET.

>>> print(df.to_string())
                                        smi  assayed_target  category_label
0  Nc1ncnc2c1ncn2[C@@H]1C=C(CO)[C@@H](O)[C@H]1O         HCT-116             MET
1  OCC1=C(F)[C@@H](n2cnc3c(O)ncnc32)[C@H](O)[C@@H]1O         HCT-116         NOT MET
2  O=c1nc(O)c(F)cn1[C@@H]1C(F)=C(CO)[C@@H](O)[C@H]1O         HCT-116         NOT MET
3  O=c1nc(O)c(I)cn1[C@@H]1C(F)=C(CO)[C@@H](O)[C@H]1O         HCT-116         NOT MET
4  O=c1nc(O)c(Cl)cn1[C@@H]1C(F)=C(CO)[C@@H](O)[C@H]1O         HCT-116         NOT MET
5  Nc1nc(=O)n([C@@H]2C(F)=C(CO)[C@@H](O)[C@H]2O)cc1Cl         HCT-116         NOT MET
6  Nc1ccn([C@@H]2O[C@H](CO)[C@@H](O)[C@@H]2O)c(=O)n1         HCT-116             MET
7  Nc1nc(=O)n([C@@H]2C(F)=C(CO)[C@@H](O)[C@H]2O)cc1Br         HCT-116         NOT MET
8  Nc1nc(N)c2ncn([C@@H]3C(F)=C(CO)[C@@H](O)[C@H]3O)c2n1         HCT-116         NOT MET
9  Nc1nc(O)c2ncn([C@@H]3C(F)=C(CO)[C@@H](O)[C@H]3O)c2n1         HCT-116         NOT MET
